Data origin: patent US20180194862A1

Biological target: T1, human mesothelin (human, UniProt Q13421 296-580, limits assumed)
T1 construct: also called Human MSLN
T1 sequence (Q13421 other isoform, or with tags, fused parts or gaps limits assumed): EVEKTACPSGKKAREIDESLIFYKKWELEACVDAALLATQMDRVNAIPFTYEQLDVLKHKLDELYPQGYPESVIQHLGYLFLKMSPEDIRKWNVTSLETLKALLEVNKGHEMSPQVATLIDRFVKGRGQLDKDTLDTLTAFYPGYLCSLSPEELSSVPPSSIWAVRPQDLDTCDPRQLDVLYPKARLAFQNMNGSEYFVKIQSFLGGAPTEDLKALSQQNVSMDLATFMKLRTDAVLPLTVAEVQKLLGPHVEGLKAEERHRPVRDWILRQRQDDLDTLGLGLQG
Assay: SPR
measured_endpoint: koff (s⁻¹)
Form entry: value (s⁻¹) — number only.

[[record]]
binder = "HuAM16 (antibody, V domains shown, fully human antibody) VH: EVQLVQSGAEVKKPGASVKVSCKASGDTFNRYYVQWVRQAPGQGLEWMGIINPSGVSTTYAQKFQGRVTMTRDTSTSTVYMELSSLRSEDTAVYYCAETRGSGFNYFGMDVWGQGTLVTVSS VL: SYELTQPPSVSVSPGQTASITCSGDKLGDKYASWYQQKPGQSPVLVIYQDNRRPSGIPERFSGSNSGNTATLTISGTQAMDEADYYCQAWDSDTYVFGTGTKVTVL"
value_measured = "2.4e-05"


With those in mind, consider the next binder.
Could you share which koff value was measured for HuAb17 (antibody, V domains shown, fully human antibody) VH: EVQLVQSGAEVKEPGASVKVSCKASGDTFNRYYVHWARQAPGQGLEWMGIINPSGVSTTYAQKFQGRVTMTRDTPTNTVYMELGSLRPEDTAVYFCAESRGSGYNYFAMDVWGQGTLVTVSS VL: SYELTQPPSVSVSPGQTADITCSGDKLGDKYASWYQQKPGQSPVLVIYQDNRRPSGIPERFSGSNSGNTATLTISGTQAMDEADYYCQAWDSDTYVFGPGTKVTVL ? 3.2e-05
